System: grass (a European grass: bent grass)
Test details: Effects of proline, glutamine, arginine and urea on hydroponic cultivation of grass
Format: in vivo
Settings: 40th day; 5 roots per group; foliar once a week, proline 20 ppm, others at the same nitrogen amount
Experimental endpoint: Number of tillering per one root
// print number alone

Ask | Entry under review: O=C(O)[C@@H]1CCCN1 . Reported Number of tillering per one root?
Reply | 5

Ask | # get_value(readout='Number of tillering per one root', item= N=C(N)NCCC[C@H](N)C(=O)O )
Reply | 3

Ask | What value of measured Number of tillering per one root is listed for NC(=O)CC[C@H](N)C(=O)O ?
Reply | 3

Ask | Sample NC(N)=O [Urea, urea, reference compound] — what was its Number of tillering per one root?
Reply | 1
